System: KB-3-1
Assay: Cytotoxic Profiling of Annotated Libraries Using Quantitative High-Throughput Screening (AID 1296008); further: on the % scale 0 is the no-effect control and ±100 the full control effect; nearly all actives have a fitted effect of over 60% in size
Conditions: Five cell lines viability, CellTiter-Glo ATP luminescence, 48-72 h; stronger effect = lower value
Results filed as inconclusive are left out.
The entries below come with measured max response values attached.
Entry rule: numbers only, all in %.

compound	reported-property	reported-measurement
CCN(CC)CCOC(=O)c1ccc(N)cc1Cl	max response	1.25
CC(C)=CCC[C@](C)(O[C@@H]1O[C@H](CO[C@@H]2OC[C@@H](O)[C@H](O)[C@H]2O)[C@@H](O)[C@H](O)[C@H]1O)[C@H]1CC[C@]2(C)[C@@H]1[C@H](O)C[C@@H]1[C@@]3(C)CC[C@H](O[C@@H]4O[C@H](CO)[C@@H](O)[C@H](O)[C@H]4O)C(C)(C)[C@@H]3CC[C@]12C	max response	5.08
Cn1c(CO)c(-c2ccccc2)c2cc([N+](=O)[O-])ccc21	max response	-20.1

[ask] Please look up its max response: O=C[C@H](O)[C@@H](O)[C@H](O[C@H]1O[C@H](CO)[C@@H](O[C@H]2O[C@H](CO)[C@@H](O)[C@H](O)[C@H]2O)[C@H](O)[C@H]1O)[C@H](O)CO
[reply] -9.17

[ask] What about this compound? Fc1ccc(-c2nc(-c3c(F)cccc3F)[nH]c2-c2ccncc2)cc1
[reply] 3.89

[ask] What about this compound? CCOc1ccc(N=C(C)Nc2ccc(OCC)cc2)cc1
[reply] -26.1

[ask] What about this compound? Fc1ccc(-c2cncc(CN3CCN(c4cccc5c4OCCO5)CC3)c2)cc1
[reply] -10.8

[ask] What about this compound? COc1ccc(CCNCC(O)COc2cccc(C)c2)cc1OC (configuration not stated)
[reply] -6.7

[ask] What about this compound? Cn1ccc(NC(=O)c2cc(Oc3ccc(C(=O)N4CCC4)c(F)c3)c3c(c2)OC(C)(C)C3)n1
[reply] 1.91

[ask] What about this compound? COc1ccc(CCO[C@@H]2O[C@H](CO[C@H]3OC[C@](O)(CO)[C@H]3O)[C@@H](OC(=O)/C=C/c3ccc(O)c(O)c3)[C@H](O[C@@H]3O[C@@H](C)[C@H](O)[C@@H](O)[C@H]3O)[C@H]2O)cc1OC
[reply] 2.16

[ask] What about this compound? S=C(c1ccc(-c2ccc(Cl)c(Cl)c2)o1)N1CCCCC1
[reply] 6.89

[ask] What about this compound? COC(=O)C[C@H]1C(C)(C)[C@H](OC(=O)c2ccccc2)C2CC3=C4CC(=O)O[C@@H](c5ccoc5)[C@]4(C)CCC3[C@@]1(C)C2=O (some centres not stated)
[reply] 0.65

====

System: Zika virus NS2B-NS3 protease (linked construct)
Assay: Primary screen NINDS Rhodamine qHTS for Zika virus inhibitors (AID 1347160); further: nearly all actives have a fitted effect of over 55% in size
Conditions: purified NS2B-NS3 protease, Rhodamine110 substrate fluorescence; series mostly up to 57.1 µM
Results filed as inconclusive are left out. Active and inactive are the calls of the source. The call rests on the fitted dose curve; in most records, active means well fitted inhibition curve with a large enough effect; inconclusive means small, poorly fitted or top-dose-only effect; inactive means no such curve, though single readings can be large or run the other way.
Give your call using only these classes: 1 for active, -1 for inactive

compound	assayed-system	qualitative-label
Cc1cc(F)ccc1-c1nc(NCCN=C(N)NC#N)nc2c1ccc(=O)n2-c1c(F)cccc1F	Zika virus NS2B-NS3 protease (linked construct)	-1
COC1CC(=O)C23C(=O)NC(Cc4c[nH]c5ccccc45)C2C(C)C2(C)OC2C3/C=C/CC(C)CC1O (centres undefined)	Zika virus NS2B-NS3 protease (linked construct)	-1
Cc1ccc(NC(=O)c2ccc(CN3CCNCC3)cc2)cc1Nc1nccc(-c2cccnc2)n1	Zika virus NS2B-NS3 protease (linked construct)	-1
CN(C)C(CCOc1cccc2ccccc12)c1ccccc1 (centres undefined)	Zika virus NS2B-NS3 protease (linked construct)	-1

[ask] // return assay outcome for C=C1C(=O)O[C@H]2/C=C(/C)[C@@H](OC(C)=O)C/C=C(\C)C[C@@H](OC(=O)/C(=C/C)COC(=O)/C(=C/C)CO)[C@@H]12
[reply] -1

[ask] What about this compound? CN(C)C(=O)NC1(c2ccccc2)CCN(CCC[C@]2(c3ccc(Cl)c(Cl)c3)CCCN(C(=O)c3ccccc3)C2)CC1
[reply] -1

[ask] What about this compound? CN(C)CC1CCn2c(c(C3=C(c4cn(C)c5ccccc45)C(=O)NC3=O)c3ccccc32)C1 (centres undefined)
[reply] -1

[ask] What about this compound? CC(=O)CC(=O)Nc1ccc(Cl)c(C(F)(F)F)c1
[reply] -1

[ask] What about this compound? O=C(O)c1cc(N(Cc2ccc(C3CCCCC3)cc2)C(=O)c2ccc(Oc3ccccc3)cc2)ccc1O
[reply] 1

[ask] What about this compound? O=C([C@@H](Cc1cccc(C(F)(F)F)c1)NS(=O)(=O)c1cc(F)c2c(c1)CCNC2)N1CCCC1
[reply] -1

[ask] What about this compound? Cc1nc(NC(=O)N2CCC[C@H]2C(N)=O)sc1-c1ccnc(C(C)(C)C(F)(F)F)c1
[reply] -1

[ask] What about this compound? O=C(Nc1ccccc1C(=O)NC1CCCCNC1=O)c1cc2ccccc2s1 (centres undefined)
[reply] -1

[ask] What about this compound? COc1ccc2nccc(C(=O)CC[C@@H]3CCN(CC#Cc4cc(F)cc(F)c4F)C[C@@H]3C(=O)O)c2c1
[reply] -1

[ask] What about this compound? Cc1nc(Nc2cnn(C3CCNCC3)c2)nc2c1N(C)C(=O)c1cc3ccccc3cc1N2C
[reply] -1

[ask] What about this compound? O=C(NC1CCN(CCCCC2(C(=O)NCC(F)(F)F)c3ccccc3-c3ccccc32)CC1)c1ccccc1-c1ccc(C(F)(F)F)cc1
[reply] -1

[ask] What about this compound? CC(=O)OC1CC2(C)C(CCC(C)C23Cc2c(O)cc(CO)c(C=O)c2O3)C(C)(C)C1O (centres undefined)
[reply] -1

[ask] What about this compound? COc1ccc(NC(=O)C2C[C@H](C)CC[C@H]2C(C)C)cc1 (some centres undefined)
[reply] -1

[ask] What about this compound? Cc1cnc(-c2ccccc2C(C)C)nc1NCc1ccc(-n2ccnn2)cc1
[reply] -1

[ask] What about this compound? C/C(=C\Cc1c(O)c(Cl)c(C)c(C=O)c1O)CC/C=C(\C)[C@H]1CC(=O)C(C)(C)O1
[reply] -1
